Would you mind telling me the reported MIC of each entry?
Tested on: Staphylococcus aureus

Example entries begin here.
{"compound": "NC(N)=NCCC[C@H](NC(=O)[C@H](CCCN=C(N)N)NC(=O)[C@H](Cc1ccccc1)NC(=O)[C@@H]1CCCN1C(=O)[C@H](Cc1c[nH]c2ccccc12)NC(=O)[C@H](Cc1c[nH]c2ccccc12)NC(=O)[C@H](Cc1c[nH]c2ccccc12)NC(=O)[C@@H]1CCCN1C(=O)[C@H](Cc1ccccc1)NC(=O)[C@H](CCCN=C(N)N)NC(=O)[C@@H](N)CCCN=C(N)N)C(=O)O [RRFPWWWPFRR]", "target": "Staphylococcus aureus", "MIC": "3.35 µM"}
{"compound": "CC(C)C[C@H](NC(=O)[C@H](Cc1ccccc1)NC(=O)[C@H](C)NC(=O)[C@H](Cc1c[nH]c2ccccc12)NC(=O)[C@H](Cc1c[nH]c2ccccc12)NC(=O)[C@H](Cc1c[nH]c2ccccc12)NC(=O)[C@H](C)NC(=O)[C@H](Cc1ccccc1)NC(=O)[C@H](CCCN=C(N)N)NC(=O)[C@H](CCCN=C(N)N)NC(=O)[C@@H](N)C(C)C)C(=O)N[C@@H](CCCN=C(N)N)C(=O)N[C@@H](CCCN=C(N)N)C(N)=O [VRRFAWWWAFLRR]", "target": "Staphylococcus aureus", "MIC": "2.7 µM"}

I need MIC for every entry listed below, if you could help.
1. CC(C)C[C@H](NC(=O)[C@H](C)NC(=O)[C@H](CC(C)C)NC(=O)[C@H](CCCCN)NC(=O)[C@H](CC(C)C)NC(=O)[C@H](C)NC(=O)[C@H](CC(C)C)NC(=O)[C@@H](N)CCCCN)C(=O)N[C@@H](CCCCN)C(=O)N[C@@H](C)C(=O)N[C@@H](Cc1c[nH]c2ccccc12)C(=O)N[C@@H](CCCCN)C(=O)N[C@@H](C)C(=O)N[C@@H](C)C(=O)N[C@@H](CC(C)C)C(=O)N[C@@H](CCCCN)C(=O)N[C@@H](CC(C)C)C(=O)N[C@@H](C)C(N)=O [KLALKLALKAWKAALKLA]
2. CC(C)C[C@H](NC(=O)[C@H](CCCN=C(N)N)NC(=O)[C@H](Cc1cnc[nH]1)NC(=O)[C@@H](NC(=O)[C@H](CCCN=C(N)N)NC(=O)CNC(=O)[C@@H](NC(=O)[C@@H]1CCCN1C(=O)[C@H](Cc1ccccc1)NC(=O)[C@H](CCC(N)=O)NC(=O)[C@H](CC(C)C)NC(=O)CNC(=O)[C@H](C)NC(=O)[C@@H](N)CCCN=C(N)N)C(C)C)C(C)C)C(=O)O [RAGLQFPVGRVHRL]
3. CC[C@H](C)[C@H](N)C(=O)N[C@@H](CS)C(=O)N[C@@H](CCCN=C(N)N)C(=O)N[C@@H](CCCCN)C(=O)N1CCC[C@H]1C(=O)N[C@H](C(=O)N[C@H](C(=O)N[C@@H](CS)C(=O)N[C@@H](CCCN=C(N)N)C(=O)N[C@@H](CCCCN)C(=O)N1CCC[C@H]1C(=O)N[C@H](C(N)=O)[C@@H](C)CC)[C@@H](C)CC)[C@@H](C)CC [ICRKPIICRKPI]

Response:
1.84 µM
159 µM
> 64 µM

* * *

Tested on: Bacillus subtilis KCTC 3068
reported.property: MIC (µM)
Give bare numbers, in µM.

Consider the worked cases shown below.
{"structure.smiles": "CC(C)C[C@H](NC(=O)[C@H](Cc1ccccc1)NC(=O)CNC(=O)[C@H](Cc1c[nH]c2ccccc12)NC(=O)[C@H](Cc1c[nH]c2ccccc12)NC(=O)[C@H](Cc1c[nH]c2ccccc12)NC(=O)CNC(=O)[C@H](Cc1ccccc1)NC(=O)[C@H](CCCN=C(N)N)NC(=O)[C@H](CCCN=C(N)N)NC(=O)[C@@H](N)C(C)C)C(=O)N[C@@H](CCCN=C(N)N)C(=O)N[C@@H](CCCN=C(N)N)C(=O)O", "observed.result": 8.78}
{"structure.smiles": "CC[C@H](C)[C@H](NC(=O)[C@H](CCCN=C(N)N)NC(=O)[C@H](CCCCN)NC(=O)[C@@H](NC(=O)[C@@H](NC(=O)[C@H](CCCN=C(N)N)NC(=O)[C@@H](N)CCCCN)[C@@H](C)CC)C(C)C)C(=O)N[C@@H](CCCCN)C(=O)N[C@@H](CCCCN)C(=O)N[C@@H](Cc1c[nH]c2ccccc12)C(=O)N[C@@H](CC(C)C)C(=O)N[C@@H](CCCN=C(N)N)C(N)=O", "observed.result": 2}
{"structure.smiles": "CC[C@H](C)[C@H](NC(=O)[C@H](C)NC(=O)[C@H](CC(C)C)NC(=O)[C@H](Cc1c[nH]c2ccccc12)NC(=O)[C@H](CC(C)C)NC(=O)[C@@H](N)CCCN=C(N)N)C(=O)NCC(=O)N[C@@H](CCCN=C(N)N)C(=O)NCC(N)=O", "observed.result": 8}
{"structure.smiles": "NC(N)=NCCC[C@H](NC(=O)[C@H](CCCN=C(N)N)NC(=O)[C@H](Cc1ccccc1)NC(=O)[C@@H]1CCCN1C(=O)[C@H](Cc1c[nH]c2ccccc12)NC(=O)[C@H](Cc1c[nH]c2ccccc12)NC(=O)[C@H](Cc1c[nH]c2ccccc12)NC(=O)[C@@H]1CCCN1C(=O)[C@H](Cc1ccccc1)NC(=O)[C@H](CCCN=C(N)N)NC(=O)[C@@H](N)CCCN=C(N)N)C(=O)O", "observed.result": 2.37}
{"structure.smiles": "CC(C)C[C@H](NC(=O)[C@H](CCCCN)NC(=O)[C@H](CCCCN)NC(=O)[C@H](Cc1ccccc1)NC(=O)[C@H](CC(C)C)NC(=O)[C@H](CCCCN)NC(=O)[C@H](CCCCN)NC(=O)[C@H](Cc1ccccc1)NC(=O)[C@H](CCCCN)NC(=O)[C@H](CCCCN)NC(=O)[C@H](CCCN=C(N)N)NC(=O)[C@H](Cc1ccccc1)NC(=O)[C@H](CCCN=C(N)N)NC(=O)[C@H](CCCCN)NC(=O)[C@H](Cc1ccccc1)NC(=O)[C@H](CCCN=C(N)N)NC(=O)CN)C(=O)N[C@@H](CO)C(N)=O", "observed.result": 4}
{"structure.smiles": "CC(C)C[C@H](NC(=O)[C@H](Cc1ccccc1)NC(=O)[C@H](CCCN=C(N)N)NC(=O)[C@H](CCCCN)NC(=O)[C@H](Cc1c[nH]c2ccccc12)NC(=O)[C@H](CCCN=C(N)N)NC(=O)[C@H](CCC(N)=O)NC(=O)[C@@H](NC(=O)[C@H](Cc1c[nH]c2ccccc12)NC(=O)[C@H](CCCN=C(N)N)NC(=O)[C@H](CCCCN)NC(=O)[C@@H](N)Cc1ccccc1)C(C)C)C(=O)N[C@@H](CCCN=C(N)N)C(N)=O", "observed.result": 2}

Here is the next item to consider.
Prompt: Please report the measured MIC for CC(C)C[C@H](NC(=O)[C@H](Cc1c[nH]c2ccccc12)NC(=O)[C@H](CCCNC(=N)N)NC(=O)[C@H](CCCNC(=N)N)NC(=O)[C@H](Cc1c[nH]c2ccccc12)NC(=O)[C@H](CCCNC(=N)N)NC(=O)[C@H](CCCNC(=N)N)NC(=O)[C@H](Cc1c[nH]c2ccccc12)NC(=O)[C@H](CC(C)C)NC(=O)[C@@H](N)CCCNC(=N)N)C(=O)N[C@@H](CCCNC(=N)N)C(=O)O
Response: 4

* * *

Test system: Pseudomonas aeruginosa PAO1
protocol: ≥ marks a high value that may be exact or a test limit, other limits are often not marked, values filed in µg/mL are converted to µM
reported.property: MIC

As a guide, the following entries are already answered.
{"compound": "CC(C)C[C@H](NC(=O)[C@H](CCC(=O)O)NC(=O)[C@H](CC(=O)O)NC(=O)[C@@H](NC(=O)[C@H](CCCN=C(N)N)NC(=O)[C@H](CO)NC(=O)[C@@H](N)CC(C)C)C(C)C)C(=O)O [LSRVDEL]", "target": "Pseudomonas aeruginosa PAO1", "observed.result": "> 154 µM"}
{"compound": "CC(C)[C@@H]1NC(=O)CNC(=O)[C@H](CCCN=C(N)N)NC(=O)[C@H](C(C)C)NC(=O)[C@H](CCCN=C(N)N)NC(=O)[C@H](C)NC(=O)[C@H](Cc2ccc(O)cc2)NC(=O)[C@H](C(C)C)NC(=O)[C@@H](NC(=O)[C@H](Cc2c[nH]c3ccccc23)NC(=O)[C@@H](N)CCCN=C(N)N)CSSC[C@@H](C(=O)N[C@@H](Cc2c[nH]c3ccccc23)C(=O)O)NC(=O)[C@H](CCCN=C(N)N)NC(=O)[C@H](CCCN=C(N)N)NC(=O)[C@H](Cc2ccc(O)cc2)NC(=O)[C@H](CCCN=C(N)N)NC1=O [RWCVYARVRGVRYRRCW]", "target": "Pseudomonas aeruginosa PAO1", "observed.result": "6.25 µM"}

Look at each compound and report its MIC.
1. CC(C)C[C@H](N)C(=O)N[C@@H](CO)C(=O)N[C@@H](CCCN=C(N)N)C(=O)N[C@H](C(=O)N[C@@H](CC(=O)O)C(=O)O)C(C)C [LSRVD]
2. CC[C@H](C)[C@H](N)C(=O)N[C@@H](CCCCN)C(=O)N[C@@H](CCCCN)C(=O)N[C@H](C(=O)N[C@H](C(=O)N[C@@H](CCCCN)C(=O)N[C@@H](CCCCN)C(=O)N[C@H](C(=O)N[C@H](C(=O)N[C@@H](CCCCN)C(N)=O)[C@@H](C)CC)[C@@H](C)CC)[C@@H](C)CC)[C@@H](C)CC [IKKIIKKIIK]

Response:
["> 217 µM", "> 500 µM"]

Hi, could you look up MIC for each item in my list?
1. CC[C@H](C)[C@H](NC(=O)[C@H](C)NC(=O)[C@@H]1CCCN1C(=O)[C@@H](NC(=O)[C@@H](NC(=O)[C@H](Cc1cnc[nH]1)NC(=O)[C@H](CO)NC(=O)[C@@H](NC(=O)[C@@H](NC(=O)[C@H](CO)NC(=O)CNC(=O)[C@H](CC(C)C)NC(=O)[C@H](CC(C)C)NC(=O)CNC(=O)[C@H](CC(C)C)NC(=O)[C@H](CC(C)C)NC(=O)CN)C(C)C)C(C)C)C(C)C)C(C)C)C(=O)N[C@H](C(=O)NCC(=O)N[C@@H](Cc1cnc[nH]1)C(=O)N[C@@H](Cc1ccccc1)C(N)=O)C(C)C [GLLGLLGSVVSHVVPAIVGHF]
2. CC[C@H](C)[C@@H]1NC(=O)CNC(=O)[C@H](CCCN=C(N)N)NC(=O)[C@H](Cc2ccc(O)cc2)NC(=O)[C@@H]2CSSC[C@H](NC1=O)C(=O)N[C@@H](Cc1ccc(O)cc1)C(=O)N[C@@H](CCCN=C(N)N)C(=O)N[C@@H](CCCN=C(N)N)C(=O)N[C@H](C(=O)N[C@@H](CCCN=C(N)N)C(=O)O)CSSC[C@H](NC(=O)[C@H](Cc1c[nH]c3ccccc13)NC(=O)[C@@H](N)CCCCN)C(=O)N[C@@H](Cc1ccccc1)C(=O)N[C@@H](CCCN=C(N)N)C(=O)N[C@@H](CCCN=C(N)N)C(=O)N2 [KWCFRRCYRGICYRRCR]

Response:
1. > 100 µM
2. > 50 µM
